Target: Gcr1 (UniProt P07261)
Sequence: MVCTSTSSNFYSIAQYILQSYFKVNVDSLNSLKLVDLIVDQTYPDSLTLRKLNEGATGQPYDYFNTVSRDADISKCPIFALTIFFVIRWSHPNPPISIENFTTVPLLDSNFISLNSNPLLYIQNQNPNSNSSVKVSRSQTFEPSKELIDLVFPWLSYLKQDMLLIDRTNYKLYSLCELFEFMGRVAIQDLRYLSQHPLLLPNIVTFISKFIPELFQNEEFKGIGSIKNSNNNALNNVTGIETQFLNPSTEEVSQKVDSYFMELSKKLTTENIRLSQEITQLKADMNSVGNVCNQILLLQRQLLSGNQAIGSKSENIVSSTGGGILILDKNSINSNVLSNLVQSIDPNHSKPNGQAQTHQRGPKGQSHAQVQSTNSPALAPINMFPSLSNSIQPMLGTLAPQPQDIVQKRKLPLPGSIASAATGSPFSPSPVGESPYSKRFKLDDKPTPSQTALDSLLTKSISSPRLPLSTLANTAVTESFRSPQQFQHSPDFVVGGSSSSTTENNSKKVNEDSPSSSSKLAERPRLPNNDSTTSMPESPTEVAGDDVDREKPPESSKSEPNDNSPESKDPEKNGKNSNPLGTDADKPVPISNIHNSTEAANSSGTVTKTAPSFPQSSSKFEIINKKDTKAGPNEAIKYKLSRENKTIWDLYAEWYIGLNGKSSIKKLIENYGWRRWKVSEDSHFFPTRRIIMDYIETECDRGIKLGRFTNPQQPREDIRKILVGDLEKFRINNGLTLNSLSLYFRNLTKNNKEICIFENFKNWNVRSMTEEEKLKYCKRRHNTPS
Assay: PBM E-score (8-mer binding enrichment) (E-score (-0.5 to 0.5)); higher = stronger / more preferred TF binding
Conditions: protein concentration: 100 nM; construct: GST-full length
Whole data set: some 33,000 sequences, median “E-score (-0.5 to 0.5)” near -0.011, cut for the highest 2% near 0.28. Only a selection was taken, and the highest values are over-represented in it overall.
OBSERVED_PROPERTY: PBM E-score
In your answer, state the number alone without any accompanying words.

Solved cases (5 shown):
INSERT INTO results (query_sequence, tested_target, observed_measurement) VALUES
  ('GCCAAAAC', 'Gcr1 (UniProt P07261)', 0.128),
  ('GCAGGGGA', 'Gcr1 (UniProt P07261)', -0.102),
  ('AGACGAAT', 'Gcr1 (UniProt P07261)', 0.0336),
  ('GAGGGCGC', 'Gcr1 (UniProt P07261)', 0.114),
  ('TGAGGGAA', 'Gcr1 (UniProt P07261)', -0.101);

Challenge: Item: ATCCAAAA Test system: Gcr1 (UniProt P07261) Read-out: PBM E-score Value: ?
Response given: 0.282

Challenge: Item: CCGGTTGC Test system: Gcr1 (UniProt P07261) Read-out: PBM E-score Value: ?
Response given: 0.317

Challenge: Item: ACAGCGGT Test system: Gcr1 (UniProt P07261) Read-out: PBM E-score Value: ?
Response given: -0.219

Challenge: Item: ATGAAGCC Test system: Gcr1 (UniProt P07261) Read-out: PBM E-score Value: ?
Response given: 0.145

Challenge: Item: ACTCAACA Test system: Gcr1 (UniProt P07261) Read-out: PBM E-score Value: ?
Response given: 0.122

Challenge: Item: ATCCAAAC Test system: Gcr1 (UniProt P07261) Read-out: PBM E-score Value: ?
Response given: -0.03

Challenge: Item: CTCCAATA Test system: Gcr1 (UniProt P07261) Read-out: PBM E-score Value: ?
Response given: 0.075

Challenge: Item: CTACGAAG Test system: Gcr1 (UniProt P07261) Read-out: PBM E-score Value: ?
Response given: 0.0785

Challenge: Item: ATCCAATA Test system: Gcr1 (UniProt P07261) Read-out: PBM E-score Value: ?
Response given: 0.303

Challenge: Item: ACGGTAGA Test system: Gcr1 (UniProt P07261) Read-out: PBM E-score Value: ?
Response given: 0.138

Challenge: Item: CCATGCCG Test system: Gcr1 (UniProt P07261) Read-out: PBM E-score Value: ?
Response given: -0.2

Challenge: Item: GACGCATA Test system: Gcr1 (UniProt P07261) Read-out: PBM E-score Value: ?
Response given: 0.141

Challenge: Item: CTGCTTCC Test system: Gcr1 (UniProt P07261) Read-out: PBM E-score Value: ?
Response given: 0.177

Challenge: Item: ACAGGTAA Test system: Gcr1 (UniProt P07261) Read-out: PBM E-score Value: ?
Response given: 0.0538
